- targetOrSystem: Phosphatidylinositol 4,5-bisphosphate 3-kinase catalytic subunit delta isoform (Homo sapiens)
- Sequence (O00329 whole entry): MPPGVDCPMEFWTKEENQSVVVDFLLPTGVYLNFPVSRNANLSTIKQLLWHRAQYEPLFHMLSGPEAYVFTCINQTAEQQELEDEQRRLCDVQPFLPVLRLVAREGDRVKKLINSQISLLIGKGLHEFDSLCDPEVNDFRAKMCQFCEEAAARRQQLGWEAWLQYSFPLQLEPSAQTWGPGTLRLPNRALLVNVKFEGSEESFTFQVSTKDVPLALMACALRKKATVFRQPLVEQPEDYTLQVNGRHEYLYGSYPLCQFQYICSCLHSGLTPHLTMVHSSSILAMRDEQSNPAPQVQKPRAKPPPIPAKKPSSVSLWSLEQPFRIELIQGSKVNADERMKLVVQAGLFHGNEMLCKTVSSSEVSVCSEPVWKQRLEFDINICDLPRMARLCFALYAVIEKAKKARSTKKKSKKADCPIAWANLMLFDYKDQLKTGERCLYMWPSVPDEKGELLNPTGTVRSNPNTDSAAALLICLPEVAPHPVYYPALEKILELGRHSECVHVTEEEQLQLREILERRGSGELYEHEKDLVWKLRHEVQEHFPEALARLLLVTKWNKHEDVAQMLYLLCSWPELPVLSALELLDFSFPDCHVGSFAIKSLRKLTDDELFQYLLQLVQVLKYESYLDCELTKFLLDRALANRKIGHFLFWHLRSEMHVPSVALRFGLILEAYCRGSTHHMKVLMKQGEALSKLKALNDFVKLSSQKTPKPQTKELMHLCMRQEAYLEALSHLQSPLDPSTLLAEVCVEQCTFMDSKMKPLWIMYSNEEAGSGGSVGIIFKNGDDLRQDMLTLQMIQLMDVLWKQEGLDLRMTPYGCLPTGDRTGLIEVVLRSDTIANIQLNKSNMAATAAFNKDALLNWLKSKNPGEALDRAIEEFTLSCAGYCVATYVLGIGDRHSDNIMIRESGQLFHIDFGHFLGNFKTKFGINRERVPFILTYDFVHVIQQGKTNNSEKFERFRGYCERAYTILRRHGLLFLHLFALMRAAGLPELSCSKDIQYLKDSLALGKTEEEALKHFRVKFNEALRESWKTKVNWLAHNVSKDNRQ
- test: Inhibition of human PI3Kdelta expressed in baculovirus infected Sf21 insect cells by ADP-Glo assay
observable: IC50

# query: IC50 of entry `COc1cncc(-c2ccc3nc(-c4nc5c(C)cccc5[nH]4)oc3c2)c1`
≥ 5 µM

----------
- test: Oral bioavailability in Beagle dog at 2 mg/kg
- Format: ADME, organism-based, Canis lupus familiaris
- conditionParameters: in vivo
observable: bioavailability (%)
Field: numeric (%). Do not append units.

# query: bioavailability of entry `CC(=O)Nc1nc(C)c(-c2cc3c(c(S(C)(=O)=O)c2)C(=O)N([C@@H](C)C2CC2)C3)s1`
82

----------
# key: entry, value: IC50
- targetOrSystem: Phosphatidylinositol 4,5-bisphosphate 3-kinase catalytic subunit delta isoform (Homo sapiens)
- test: Inhibition of P13Kdelta (unknown origin) in the presence of ATP by scintillation proximity assay

{"compound": "Clc1ccc(Cn2cc(-c3ccnc(-c4ncc(-c5ccccc5)[nH]4)c3)cn2)cc1", "IC50": "> 500 nM"}

Then there is this compound:
# query: IC50 of entry Cc1nc(N)c2ncc(-c3cc(C(C)(O)CC(F)(F)F)ccc3C)n2n1 (stereo not given)
< 2000 nM
